Tested on: ACHN
test_details: NCI tumour cell line growth inhibition, 48 h
Activity calls are given as the source filed them. Rule as the data show it: active = GI50 up to about 1.1 µM and inactive = higher. Peptide text beside a SMILES is read from it. * marks the point of attachment. Boc = CC(C)(C)OC(=O)*; OtBu = CC(C)(C)O*
// classify into active, inactive

-- ask # lookup: test call for `CC1=C(C(=O)Nc2ccccc2C)C(c2ccc(C3C(C(=O)Nc4ccccc4C)=CNC=C3C(=O)Nc3ccccc3C)cc2)C(C(=O)Nc2ccccc2C)=C(C)N1`
-- reply inactive

-- ask Answer briefly: the call reported for `CC(C)C(=O)Nc1nc2[nH]cnc2c(=O)[nH]1` in this assay.
-- reply inactive

-- ask Please let me know the test result on file for O=C(O)c1ccc(C2COc3ccc(Cl)cc3C2)cc1 (centres undefined) .
-- reply inactive

-- ask Record request — test call for COc1cc2cc(C(=O)N3CC(COS(C)(=O)=O)c4c3cc([N+](=O)[O-])c3ccccc43)[nH]c2c(OC)c1OC (centres undefined)
-- reply active

-- ask Outcome? `CCOC(=O)NC(Nc1ncccn1)(C(F)(F)F)C(F)(F)F`
-- reply inactive

-- ask What did this assay record as the result for `C=C1C(=O)O[C@H]2[C@H]([C@H](C)CCCC(C)=O)O[C@H]([C@@]3(C)CCC(=O)O3)C[C@@H]12` ?
-- reply inactive

-- ask Hi, do you know how `CN(C)CCNC(=O)c1cccc2ncc(-c3ccccc3)nc12` came out in this test?
-- reply inactive

-- ask // param item: CC(=O)C1CC=C(C)CC1 (centres undefined) ; yields the recorded call
-- reply inactive

-- ask Name the outcome recorded for `Cc1cc(C)c2c(=O)n(CN3CCC(O)(c4ccccc4)CC3)sc2n1` in the assay.
-- reply inactive

-- ask Which outcome was assigned to `COc1cc(/C=C/C(=O)Oc2ccccc2)ccc1C(=O)O/C=C/c1ccccc1` in this test?
-- reply inactive

-- ask Tell me the recorded outcome of this test for `COc1cc(OC)cc(OCc2nc3cc(C(F)(F)F)ccc3nc2-c2ccccc2)c1` .
-- reply inactive

-- ask Test call for this molecule, please: `O=C1c2ccccc2C(=O)c2sc(Nc3ccc(Cl)c(Cl)c3)nc21`
-- reply inactive

-- ask Please let me know the test result on file for `O=C(NN1C(=O)c2ccccc2C1=O)c1ccccc1Nc1ccccc1C(=O)NN1C(=O)c2ccccc2C1=O` .
-- reply inactive

-- ask Check the results log: what was the call for `CCOC(=O)N1C(=S)C(C(=O)OC)(C(=O)OC)N=C1C` ?
-- reply inactive

-- ask Entry CC(C)C1OC(=O)C(Cc2ccccc2)N(C)C(=O)C(C(C)C)OC(=O)C(Cc2ccccc2)N(C)C(=O)C(C(C)C)OC(=O)C(Cc2ccccc2)N(C)C1=O (centres undefined) : call = ?
-- reply active

-- ask Hi, do you know how `Cc1ccc(/N=C2\SC(=NN(C)C)S\C2=N/c2ccc(C)cc2)cc1` came out in this test?
-- reply inactive

-- ask Any idea what this test logged for CC(=O)OC1CCC2(C)C(CCC3C2CC(=O)C2(C)C3CC(N3CC3)C2C(C)=O)C1 (centres undefined) ?
-- reply inactive

-- ask What was the test verdict on C=C1CC23CCC4C(C)(C(=O)O)CCCC4(C)C2CCC1C3 (centres undefined) ?
-- reply inactive

-- ask Field: outcome | Entry: CC(=O)N1c2ccccc2C2=NN(C)C(=N)SC21 (centres undefined)
-- reply inactive

-- ask What did this assay record as the result for `N#Cc1c(N2CCCC2)ncn(Cc2ccccc2)c1=S` ?
-- reply inactive

-- ask # fetch the recorded call for CC(C)(C)OC(=O)CC(NC(=O)OC(C)(C)C)C(=O)NC(Cc1ccccc1)C(N)=O (centres undefined) (Boc-Asp(OtBu)-Phe-NH2; configuration not given here) here
-- reply inactive

-- ask What classification did `Cc1cnc2nc(-c3cccc4ccccc34)cc(O)c2c1` end up with in this test?
-- reply active

-- ask Assay outcome for C=C1C(=O)OC2C[C@@]3(C)CCCC(=C)C3CC12 (some centres undefined) : what was it?
-- reply inactive

-- ask What did the test return for Cc1cccc(C(C)(C)C)c1NC(=O)C(=O)C(c1cnc2ccccc2n1)[N+](=O)[O-] (centres undefined) ?
-- reply inactive
